test: Study KAR5585-101 Part 1 (SAD): plasma pharmacokinetics after a single oral dose of KAR5585, fasting and fed (incl. dose proportionality and food effect); settings: human, plasma, po, 100 mg, AUC0-∞, KAR5417 after 100 mg KAR5585 single oral, fasted, Cohort 1; Geo. Mean

mol: Nc1nc(O[C@H](c2ccc(Cl)cc2-c2ccccc2)C(F)(F)F)cc(N2CCC3(CC2)CN[C@H](C(=O)O)C3)n1
AUC(0-inf) / ng·h/mL: 847

* * *

assay: Study KAR5585-101 Part 1 (SAD): plasma pharmacokinetics after a single oral dose of KAR5585, fasting and fed (incl. dose proportionality and food effect); conditions: human, plasma, po, 400 mg, Cmax, 400 mg KAR5585 single oral, fed, Cohort 3B; Geo. Mean
outcome.measure: Cmax (ng/mL)

mol: CCOC(=O)[C@@H]1CC2(CCN(c3cc(O[C@H](c4ccc(Cl)cc4-c4ccccc4)C(F)(F)F)nc(N)n3)CC2)CN1
outcome.measure: Cmax
unit.info: ng/mL
result: 165

* * *

experiment: Study KAR5585-101 Part 1 (SAD): plasma pharmacokinetics after a single oral dose of KAR5585, fasting and fed (incl. dose proportionality and food effect); conditions: human, plasma, po, 2000 mg, AUC0-∞, KAR5417 after 2000 mg KAR5585 single oral, fasted, Cohort 6; Geo. Mean

mol: Nc1nc(O[C@H](c2ccc(Cl)cc2-c2ccccc2)C(F)(F)F)cc(N2CCC3(CC2)CN[C@H](C(=O)O)C3)n1
AUC(0-inf), ng·h/mL: 10200

* * *

test: Study KAR5585-101 Part 1 (SAD): plasma pharmacokinetics after a single oral dose of KAR5585, fasting and fed (incl. dose proportionality and food effect); settings: human, plasma, po, 1200 mg, AUC0-tau, 1200 mg KAR5585 single oral, fasted, Cohort 5; Mean

mol: CCOC(=O)[C@@H]1CC2(CCN(c3cc(O[C@H](c4ccc(Cl)cc4-c4ccccc4)C(F)(F)F)nc(N)n3)CC2)CN1
AUC: 364 ng·h/mL

* * *

assay: Study KAR5585-101 Part 1 (SAD): plasma pharmacokinetics after a single oral dose of KAR5585, fasting and fed (incl. dose proportionality and food effect); conditions: human, plasma, po, 200 mg, Cmax, 200 mg KAR5585 single oral, fasted, Cohort 2; Geo. Mean

mol: CCOC(=O)[C@@H]1CC2(CCN(c3cc(O[C@H](c4ccc(Cl)cc4-c4ccccc4)C(F)(F)F)nc(N)n3)CC2)CN1
Cmax: 17.5 ng/mL

* * *

assay: Study KAR5585-101 Part 1 (SAD): plasma pharmacokinetics after a single oral dose of KAR5585, fasting and fed (incl. dose proportionality and food effect); conditions: human, plasma, po, 200 mg, AUC0-tau, KAR5417 after 200 mg KAR5585 single oral, fasted, Cohort 2; Geo. Mean

mol: Nc1nc(O[C@H](c2ccc(Cl)cc2-c2ccccc2)C(F)(F)F)cc(N2CCC3(CC2)CN[C@H](C(=O)O)C3)n1
AUC [ng·h/mL]: 866

* * *

test: Study KAR5585-101 Part 1 (SAD): plasma pharmacokinetics after a single oral dose of KAR5585, fasting and fed (incl. dose proportionality and food effect); conditions: human, plasma, po, 100 mg, AUC0-12, KAR5417 after 100 mg KAR5585 single oral, fasted, Cohort 1; Geo. Mean
outcome.measure: AUC(0-t) (ng·h/mL)

compound: Nc1nc(O[C@H](c2ccc(Cl)cc2-c2ccccc2)C(F)(F)F)cc(N2CCC3(CC2)CN[C@H](C(=O)O)C3)n1 [KAR5417]
outcome.measure: AUC(0-t)
unit.info: ng·h/mL
result: 686

* * *

assay: Study KAR5585-101 Part 1 (SAD): plasma pharmacokinetics after a single oral dose of KAR5585, fasting and fed (incl. dose proportionality and food effect); conditions: human, plasma, po, 200 mg, AUC0-∞, KAR5417 after 200 mg KAR5585 single oral, fasted, Cohort 2; Geo. Mean

mol: Nc1nc(O[C@H](c2ccc(Cl)cc2-c2ccccc2)C(F)(F)F)cc(N2CCC3(CC2)CN[C@H](C(=O)O)C3)n1
AUC(0-inf), ng·h/mL: 988

* * *

assay: Study KAR5585-101 Part 1 (SAD): plasma pharmacokinetics after a single oral dose of KAR5585, fasting and fed (incl. dose proportionality and food effect); settings: human, plasma, po, 700 mg, AUC0-tau, KAR5417 after 700 mg KAR5585 single oral, fasted, Cohort 4; Mean
outcome.measure: AUC (ng·h/mL)

compound: Nc1nc(O[C@H](c2ccc(Cl)cc2-c2ccccc2)C(F)(F)F)cc(N2CCC3(CC2)CN[C@H](C(=O)O)C3)n1 [KAR5417]
result: 5840

* * *

test: Study KAR5585-101 Part 1 (SAD): plasma pharmacokinetics after a single oral dose of KAR5585, fasting and fed (incl. dose proportionality and food effect); conditions: human, plasma, po, 400 mg, AUC0-∞, KAR5417 after 400 mg KAR5585 single oral, fed, Cohort 3B; Mean

mol: Nc1nc(O[C@H](c2ccc(Cl)cc2-c2ccccc2)C(F)(F)F)cc(N2CCC3(CC2)CN[C@H](C(=O)O)C3)n1
AUC(0-inf) (ng·h/mL): 6710

* * *

assay: Study KAR5585-101 Part 1 (SAD): plasma pharmacokinetics after a single oral dose of KAR5585, fasting and fed (incl. dose proportionality and food effect); conditions: human, plasma, po, 100 mg, Cmax, KAR5417 after 100 mg KAR5585 single oral, fasted, Cohort 1; Mean

compound: Nc1nc(O[C@H](c2ccc(Cl)cc2-c2ccccc2)C(F)(F)F)cc(N2CCC3(CC2)CN[C@H](C(=O)O)C3)n1 [KAR5417]
Cmax / ng/mL: 107

* * *

experiment: Study KAR5585-101 Part 1 (SAD): plasma pharmacokinetics after a single oral dose of KAR5585, fasting and fed (incl. dose proportionality and food effect); conditions: human, plasma, po, 400 mg, AUC0-∞, KAR5417 after 400 mg KAR5585 single oral, fasted, Cohort 3A; Geo. Mean

mol: Nc1nc(O[C@H](c2ccc(Cl)cc2-c2ccccc2)C(F)(F)F)cc(N2CCC3(CC2)CN[C@H](C(=O)O)C3)n1
AUC(0-inf) [ng·h/mL]: 3280

* * *

test: Study KAR5585-101 Part 1 (SAD): plasma pharmacokinetics after a single oral dose of KAR5585, fasting and fed (incl. dose proportionality and food effect); settings: human, plasma, po, 1200 mg, AUC0-12, KAR5417 after 1200 mg KAR5585 single oral, fasted, Cohort 5; Geo. Mean
outcome.measure: AUC(0-t) (ng·h/mL)

compound: Nc1nc(O[C@H](c2ccc(Cl)cc2-c2ccccc2)C(F)(F)F)cc(N2CCC3(CC2)CN[C@H](C(=O)O)C3)n1 [KAR5417]
result: 4580

* * *

experiment: Study KAR5585-101 Part 1 (SAD): plasma pharmacokinetics after a single oral dose of KAR5585, fasting and fed (incl. dose proportionality and food effect); conditions: human, plasma, po, 1200 mg, tmax, 1200 mg KAR5585 single oral, fasted, Cohort 5; Median

mol: CCOC(=O)[C@@H]1CC2(CCN(c3cc(O[C@H](c4ccc(Cl)cc4-c4ccccc4)C(F)(F)F)nc(N)n3)CC2)CN1
Tmax: 2 h

* * *

test: Study KAR5585-101 Part 1 (SAD): plasma pharmacokinetics after a single oral dose of KAR5585, fasting and fed (incl. dose proportionality and food effect); conditions: human, plasma, po, 400 mg, tmax, KAR5417 after 400 mg KAR5585 single oral, fed, Cohort 3B; Median
outcome.measure: Tmax (h)

compound: Nc1nc(O[C@H](c2ccc(Cl)cc2-c2ccccc2)C(F)(F)F)cc(N2CCC3(CC2)CN[C@H](C(=O)O)C3)n1 [KAR5417]
result: 4

* * *

experiment: Study KAR5585-101 Part 1 (SAD): plasma pharmacokinetics after a single oral dose of KAR5585, fasting and fed (incl. dose proportionality and food effect); settings: human, plasma, po, 1200 mg, tmax, KAR5417 after 1200 mg KAR5585 single oral, fasted, Cohort 5; Median

molecule: Nc1nc(O[C@H](c2ccc(Cl)cc2-c2ccccc2)C(F)(F)F)cc(N2CCC3(CC2)CN[C@H](C(=O)O)C3)n1 [KAR5417]
Tmax (h): 6

* * *

assay: Study KAR5585-101 Part 1 (SAD): plasma pharmacokinetics after a single oral dose of KAR5585, fasting and fed (incl. dose proportionality and food effect); conditions: human, plasma, po, 100 mg, tmax, 100 mg KAR5585 single oral, fasted, Cohort 1; Median

molecule: CCOC(=O)[C@@H]1CC2(CCN(c3cc(O[C@H](c4ccc(Cl)cc4-c4ccccc4)C(F)(F)F)nc(N)n3)CC2)CN1 [KAR5585]
Tmax, h: 1.5

* * *

assay: Study KAR5585-101 Part 1 (SAD): plasma pharmacokinetics after a single oral dose of KAR5585, fasting and fed (incl. dose proportionality and food effect); details: human, plasma, po, 700 mg, AUC0-∞, 700 mg KAR5585 single oral, fasted, Cohort 4; Mean

mol: CCOC(=O)[C@@H]1CC2(CCN(c3cc(O[C@H](c4ccc(Cl)cc4-c4ccccc4)C(F)(F)F)nc(N)n3)CC2)CN1
AUC(0-inf) (µg·h/mL): 0.436
